Test system: Saccharomyces cerevisiae
assayMethodText: protein stability index of tFT-peptide fusion in wild type (PSI (0-1 scale)); higher = more stable (slower turnover)
testSettings: genetic background: wild type

{"columns": ["biosequence", "protein stability index"],
 "data": [
  ["AITLPMCPLLLRV", 0.11],
  ["KKHKKGQFQKIN", 0.112],
  ["RSLRILLPLYFR", 0.253],
  ["PSLAACFWRVVG", 0.141],
  ["KKHKKGQKQKFN", 0.307],
  ["FSMRWHFRYWVN", 0.0543],
  ["GVVYLSCVACIN", 0.0144],
  ["ARTRVGLWRGAS", 0.598],
  ["LKILRQKMNHHN", 0.247],
  ["LKIWRQKMNHQN", 0.176]
]}

* * *

System: Saccharomyces cerevisiae
assayMethodText: protein stability index of tFT-peptide fusion (C-terminal peptide) (PSI (0-1 scale)); higher = more stable (slower turnover)
testSettings: genetic background: wild type; temperature: 30 C

{"columns": ["biosequence", "studyTarget", "protein stability index"],
 "data": [
  ["EWGRSGVRCRLG", "Saccharomyces cerevisiae", 0.571],
  ["NKKKKETKNAQQ", "Saccharomyces cerevisiae", 0.698],
  ["FWGPVWNVSWGV", "Saccharomyces cerevisiae", 0.695],
  ["RSGAAREVSGGA", "Saccharomyces cerevisiae", 0.755],
  ["VPLPLVPCARIY", "Saccharomyces cerevisiae", 0.627],
  ["RRCRLNPPIDST", "Saccharomyces cerevisiae", 0.683],
  ["SSCTRLSILVWF", "Saccharomyces cerevisiae", 0.52],
  ["PALPPASPRPAL", "Saccharomyces cerevisiae", 0.776],
  ["LPAPLHPPPSQP", "Saccharomyces cerevisiae", 0.638],
  ["SLSPARKDSSLP", "Saccharomyces cerevisiae", 0.683],
  ["LLLLFWSGSCGC", "Saccharomyces cerevisiae", 0.648],
  ["LLSFYFVLAYMV", "Saccharomyces cerevisiae", 0.28],
  ["PPSLPPLSPPLA", "Saccharomyces cerevisiae", 0.736],
  ["GVVGLEVLGRWG", "Saccharomyces cerevisiae", 0.687],
  ["HTPTFPTSPPPP", "Saccharomyces cerevisiae", 0.68],
  ["APPSPRPSRPSP", "Saccharomyces cerevisiae", 0.64],
  ["NAVSFVKGRLVY", "Saccharomyces cerevisiae", 0.657],
  ["IGDRQIDFFKKD", "Saccharomyces cerevisiae", 0.707],
  ["RNTSQNRIDEKL", "Saccharomyces cerevisiae", 0.657]
]}

* * *

Test system: Saccharomyces cerevisiae
assayMethodText: protein stability index of tFT-peptide fusion (C-terminal peptide) (PSI (0-1 scale)); higher = more stable (slower turnover)
testSettings: genetic background: wild type; temperature: 30 C
Measured protein stability index, listed per entry.

{"columns": ["biosequence", "studyTarget", "protein stability index"],
 "data": [
  ["NQVNEELDKKGH", "Saccharomyces cerevisiae", 0.719],
  ["RSEGEGGKGKRE", "Saccharomyces cerevisiae", 0.687],
  ["GGLGGWAECGRW", "Saccharomyces cerevisiae", 0.748],
  ["PTCALPKLLTHP", "Saccharomyces cerevisiae", 0.796],
  ["CVVRSGIGFSLL", "Saccharomyces cerevisiae", 0.741],
  ["QKNKNTEKINTK", "Saccharomyces cerevisiae", 0.663],
  ["RRRKPAEHTPPW", "Saccharomyces cerevisiae", 0.755],
  ["FLSSFVSNHVFW", "Saccharomyces cerevisiae", 0.791],
  ["VIRQVKFDRKCS", "Saccharomyces cerevisiae", 0.681],
  ["FLLYGWTRPSCQ", "Saccharomyces cerevisiae", 0.735],
  ["HRFPPPRPPPFS", "Saccharomyces cerevisiae", 0.729],
  ["VHIVTLGGVLSF", "Saccharomyces cerevisiae", 0.608],
  ["RAPMQPTATQAP", "Saccharomyces cerevisiae", 0.654],
  ["PSAPSLPPFFPP", "Saccharomyces cerevisiae", 0.644],
  ["RRPPPPRGPSPP", "Saccharomyces cerevisiae", 0.713],
  ["EWRWPTELNRKG", "Saccharomyces cerevisiae", 0.75],
  ["LPILFPAALRLY", "Saccharomyces cerevisiae", 0.44],
  ["GLCLFPAFSFPF", "Saccharomyces cerevisiae", 0.671],
  ["NVLIASGIEVKK", "Saccharomyces cerevisiae", 0.629],
  ["TSHSSSGQAGKI", "Saccharomyces cerevisiae", 0.73],
  ["FRSRGPVGMGAS", "Saccharomyces cerevisiae", 0.686],
  ["RLLMIFTSKMFM", "Saccharomyces cerevisiae", 0.662],
  ["PTPRPTRSPPPP", "Saccharomyces cerevisiae", 0.689],
  ["WGRCLGWAGPAG", "Saccharomyces cerevisiae", 0.788],
  ["HPTDVAISPRPS", "Saccharomyces cerevisiae", 0.678],
  ["NFRTHRHLVARS", "Saccharomyces cerevisiae", 0.762],
  ["VFCFGVRSVFLR", "Saccharomyces cerevisiae", 0.54],
  ["LLFLLSPFNFAV", "Saccharomyces cerevisiae", 0.328],
  ["ERGACPGLRQLN", "Saccharomyces cerevisiae", 0.649],
  ["LCLFPLVTPPPA", "Saccharomyces cerevisiae", 0.607],
  ["PTPPPAFGFPPP", "Saccharomyces cerevisiae", 0.688],
  ["GFLSSSKSCRCH", "Saccharomyces cerevisiae", 0.632],
  ["GCWGGLGAPGVS", "Saccharomyces cerevisiae", 0.734],
  ["LLRFVGVRVRGA", "Saccharomyces cerevisiae", 0.646],
  ["SRPFAILLCAEK", "Saccharomyces cerevisiae", 0.62],
  ["GGFRREPWEILR", "Saccharomyces cerevisiae", 0.649],
  ["RNYQKAKENMKL", "Saccharomyces cerevisiae", 0.585],
  ["VFAWFSGGARLT", "Saccharomyces cerevisiae", 0.717],
  ["SHSRRRTPSVTP", "Saccharomyces cerevisiae", 0.713],
  ["LLPALPLPLSLT", "Saccharomyces cerevisiae", 0.64],
  ["ERGLATGRGGWV", "Saccharomyces cerevisiae", 0.733]
]}

FYI, the data here is from the supplement of paper PMC10724198.
